Reported Trimeric HA Binding RLU is given for each of the following binders.
Molecular target: recombinant soluble homotrimeric HA of A/swine/Ontario/01911-2/99 (H4N6) (Influenza A virus A/Swine/Ontario/01911-2/99 (H4N6))
Test: HA microarray, BCC supernatant
Details: remark: other sources report otherwise
State the value, then name its unit.

Report Trimeric HA Binding RLU, nothing else, for this binder: TCN-527 (5086_C06) (antibody, V domains shown) VH: QVQLQESGPGLVKPSETLSLNCAVSGGSISNYYWSWIRQPPGKGLEWIGYISYNGRPKYNPSLTSRVTISVDTSKDQFSLELRSVTAADTALYYCARETRFGELLSPYDAFEIWGQGTMVTVSS VL: DIQMTQSPSSLSASVGDRVTMTCRASQNIRSYLNWYQQRPGTAPKLLIYAASTLHSGVPSRFSGGGSGTDFTLTINNLQPEDFASYYCQQSYDNPQTFGQGTKVEIK
7690 RLU

Okay, now this binder:
Report Trimeric HA Binding RLU, nothing else, for this binder: TCN-535 (5246_P19) (antibody, V domains shown) VH: QVQLVQSGSEVKKPGTSVKVSCTASGSVFTNYGISWVRQAPGQGLEWMGGIIPLFGAAKYAQKFQGRVTITADESTKTVYMELSRLTSKDTAIYFCAKAPRVYEYYFDQWGQGTPVTVSS VL: EIVLTQSPGTLSLSPGERATLSCRASQSVSSSQLAWYQQKPGQAPRLIIYGASTRATGIPDRFSGSGSGTDFTLTIGRLEPEDFAVFFCQQYSTSPPTFGQGTKVDFK
5950 RLU

Value source: patent US20150104459A1
